Biological target: GST-tagged KRAS-G12D (2-169) (Homo sapiens, UniProt P01116, G12D)
Sequence (P01116 2-169 isoform P01116-2 G12D): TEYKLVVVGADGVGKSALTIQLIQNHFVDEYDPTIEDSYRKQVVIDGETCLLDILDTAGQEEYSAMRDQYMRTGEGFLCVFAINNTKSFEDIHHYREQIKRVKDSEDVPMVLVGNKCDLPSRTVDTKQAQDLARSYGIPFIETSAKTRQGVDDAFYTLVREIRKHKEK
Experiment: Nucleotide exchange assay (NEA), SOS-mediated, HTRF, KRAS G12D
Format: biochemical
Conditions: Table 2; IC50 extracted at 30 min; 20 nM SOScat; read-out: NEA-G12D (uM) IC50
quantity kind: IC50

Given the entry CN(C)C(=O)c1nn2c(c1Cl)CN(c1nc(OC[C@@]34CCCN3C[C@H](F)C4)nc(N3CC4(CCc5sc(N)c(C#N)c54)C3)n1)CCC2 , report its measured IC50.
< 0.01 µM

Fill in: IC50 of N#Cc1c(N)sc2c1C1(CC2)CN(c2nc(OC[C@@]34CCCN3C[C@H](F)C4)nc(N3CCC[C@@H](CO)C3)n2)C1 is ___
0.01 to 0.1 µM

Look up IC50: C[C@@]1(O)CCCN(c2nc(OC[C@@]34CCCN3C[C@H](F)C4)nc(N3CCC4(CCc5sc(N)c(C#N)c54)C3)n2)C1 (stereo partly drawn)
0.1 to 1 µM

Query (compound): N#Cc1c(N)sc2c1C1(CC2)CCN(c2nc(OC[C@@]34CCCN3C[C@H](F)C4)nc(N3CCCC(C#N)CC3)n2)C1 (stereo partly drawn) ; field requested: IC50
0.1 to 1 µM

Given the compound CC(C#N)COc1nc(OC[C@@]23CCCN2C[C@H](F)C3)nc(N2CC3(CCc4sc(N)c(C#N)c43)C2)n1 (stereo partly drawn) , what is its reported IC50?
0.1 to 1 µM

I have this compound here, N#Cc1c(N)sc2c1C1(CC2)CN(c2nc(OCC34CCCN3CC(F)C4)nc(N3CC4CCC(C3)N4)n2)C1 (stereo not drawn) , and I need its recorded IC50.
< 0.01 µM

---

Biological target: GST-tagged KRAS-G12D (2-169) (Homo sapiens, UniProt P01116, G12D)
Experiment: Nucleotide exchange assay (NEA), SOS-mediated, HTRF, KRAS G12D
Format: biochemical
Settings: Table 4; IC50 extracted at 30 min; 20 nM SOScat; read-out: NEA G12D IC50
Please respond with reported IC50 for every item in the list.

Dear colleague, I am looking for the recorded IC50 of the following compound: C[C@@]1(O)C[C@H](O)CN(c2nc(OC[C@@]34CCCN3C[C@H](F)C4)nc(N3CC4(CCc5sc(N)c(C#N)c54)C3)n2)C1
10 to 100 nM

For the compound shown here, C[C@@]1(O)CCCN(c2nc(OC[C@@]34CCCN3C[C@H](F)C4)nc(N3CC4(C3)c3c(sc(N)c3C#N)C[S+]4[O-])n2)C1 (stereo partly drawn) , give the reported IC50.
10 to 100 nM

For the compound CCN(c1nc(OC[C@]2(CO)CCCN2C)nc(N2CC3(C2)SCc2sc(N)c(C#N)c23)n1)[C@H](C)c1cccnc1N , what IC50 is on record?
< 10 nM

---

Target: GST-tagged KRAS-G12D (2-169) (Homo sapiens, UniProt P01116, G12D)
Assay: Nucleotide exchange assay (NEA), SOS-mediated, HTRF, KRAS G12D
Assay type: biochemical
Conditions: Table 4; IC50 extracted at 30 min; 20 nM SOScat; read-out: NEA G12D IC50
Task for the reader: assign each of the following compounds its reported IC50.

Recorded IC50 for CC(c1c[nH]nn1)N(CC#N)c1nc(OC[C@@]23CCCN2C[C@H](F)C3)nc(N2CC3(C2)SCc2sc(N)c(C#N)c23)n1 (stereo partly shown) , please?
< 10 nM

Could you share which IC50 value was measured for CN(c1nc(OC[C@@]23CCCN2C[C@H](F)C3)nc(N2CC3(C2)SCc2sc(N)c(C#N)c23)n1)C1CC1 ?
10 to 100 nM

I have this compound here, N#CCC1(O)CCCN(c2nc(OC[C@@]34CCCN3C[C@H](F)C4)nc(N3CC4(CCc5sc(N)c(C#N)c54)C3)n2)C1 (stereo partly shown) , and I need its recorded IC50.
10 to 100 nM

I'd like to know its IC50. The compound in question is N#Cc1c(N)sc2c1C1(CN(c3nc(OC[C@@]45CCCN4C[C@H](F)C5)nc(Oc4ccnnc4)n3)C1)SC2
1000 to 20000 nM
